Give remaining activity at 2200 µM for every item shown.
Target: E. coli DdlB enzyme (D-alanine:D-alanine ligase) (Escherichia coli, UniProt P07862)
Construct: made in house; host or cells: E. coli
Assay: biochemical
Details: tested concentration 2.2 mM; read-out: DdlB RA
Express it in %; write the number only.

Q) Specify reported remaining activity at 2200 µM for the molecule shown: O=C1CSC2N1CCNC21CCCCC1 (centres unmarked)
A) 90

Q) Specify reported remaining activity at 2200 µM for the molecule shown: Cn1c(-c2ccco2)nnc1S(=O)(=O)O
A) 90

Q) Specify reported remaining activity at 2200 µM for the molecule shown: COc1ccc2[nH]c(S(=O)(=O)O)nc2c1
A) 91

Q) Specify reported remaining activity at 2200 µM for the molecule shown: CC(=O)N1CC(c2nc(C)no2)C2(CNC2)C1 (centres unmarked)
A) 69

Q) Specify reported remaining activity at 2200 µM for the molecule shown: CC1CN(C)C(C)CC1n1nc(O)cc1N (centres unmarked)
A) 101

Q) Specify reported remaining activity at 2200 µM for the molecule shown: CCOC(=O)c1ccccc1S(N)(=O)=O
A) 99

Q) Specify reported remaining activity at 2200 µM for the molecule shown: Cc1nn(-c2ccccn2)c2c1C(=O)C(C#N)CC2 (centres unmarked)
A) 83

Q) Specify reported remaining activity at 2200 µM for the molecule shown: O=S(=O)(O)c1nnc(-c2ccncc2)[nH]1
A) 80

Q) Specify reported remaining activity at 2200 µM for the molecule shown: CCOc1c(N2CCC(C)CC2)c(=O)c1=O
A) 71

Q) Specify reported remaining activity at 2200 µM for the molecule shown: O=C1Nc2ncccc2OC1c1ccccc1 (centres unmarked)
A) 106

Q) Specify reported remaining activity at 2200 µM for the molecule shown: O=C(O)c1cnn2c(-c3ccco3)ccnc12
A) 56

Q) Specify reported remaining activity at 2200 µM for the molecule shown: Cc1ccc2ccc(S(=O)(=O)O)cc2c1
A) 101

Q) Specify reported remaining activity at 2200 µM for the molecule shown: Cc1ccc([C@@H](CC(=O)O)c2ccco2)cc1
A) 100

Q) Specify reported remaining activity at 2200 µM for the molecule shown: Nc1cc(Br)cc2cccnc12
A) 89

All figures here come from paper PMC9718554.
